targetOfAssay: HLA-A*26:01
assayInfo: IEDB peptide-MHC binding, purified MHC/direct/fluorescence; filed as Kd, often an IC50 or EC50 that approximates it; bounds were set here for any values at or beyond the usual limits of such assays
conditionsUsed: source organism: Yersinia enterocolitica
measurementName: pKd
Convention used: pKd is expressed as -log10 of the molar concentration.

Query :: Which pKd is reported for this sequence? YIFRNTINM
Result :: 6.14

* * *

Task for the reader: assign each of the following sequences its reported Kd.
targetOfAssay: HLA-A*02:06
assayInfo: IEDB peptide-MHC binding, purified MHC/competitive/radioactivity; filed as Kd, often an IC50 or EC50 that approximates it; bounds were set here for any values at or beyond the usual limits of such assays
conditionsUsed: source organism: SARS coronavirus Tor2
Quote the value and follow it with the unit of measurement.

Query :: Which Kd is reported for this sequence? FLFLAWIML
Result :: 36.7 nM

Query :: Which Kd is reported for this sequence? YLLGLSAIM
Result :: 3.22 nM
